Molecular target: Cathepsin D (Bos taurus)
Sequence (P80209 whole entry): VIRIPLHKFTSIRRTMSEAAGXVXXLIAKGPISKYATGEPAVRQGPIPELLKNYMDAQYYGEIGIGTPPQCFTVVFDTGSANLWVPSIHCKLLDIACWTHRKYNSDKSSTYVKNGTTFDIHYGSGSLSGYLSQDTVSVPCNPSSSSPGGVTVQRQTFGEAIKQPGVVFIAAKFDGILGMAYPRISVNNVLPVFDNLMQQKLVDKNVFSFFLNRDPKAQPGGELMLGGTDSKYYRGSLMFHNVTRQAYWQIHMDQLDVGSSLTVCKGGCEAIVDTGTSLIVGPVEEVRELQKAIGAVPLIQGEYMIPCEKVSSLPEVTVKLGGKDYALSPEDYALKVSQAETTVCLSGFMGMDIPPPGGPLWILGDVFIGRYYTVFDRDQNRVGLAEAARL
observation-type: IC50

smiles-representation | observed
CC[C@H](C)[C@H](NC(=O)C[C@H](O)[C@H](CC1CCCCC1)NC(=O)CCNC(=O)[C@H](Cc1ccccc1)NC(=O)N1CCC(NC(=O)OC(C)(C)C)CC1)C(=O)NCc1cnc(C)nc1N | 5.9 µM
CC[C@H](C)[C@H](NC(=O)C[C@H](O)[C@H](CC1CCCCC1)NC(=O)CCNC(=O)[C@H](Cc1ccccc1)NC(=O)N1CCC(N)CC1)C(=O)NCc1cnc(C)nc1N.Cl.Cl | 8.5 µM
CC[C@H](C)[C@H](NC(=O)C[C@H](O)[C@H](CC1CCCCC1)NC(=O)CS(=O)(=O)CC(=O)[C@H](Cc1ccccc1)NC(=O)OC(C)(C)C)C(=O)NCc1cnc(C)nc1N | > 10 µM

---

Quick record of IC50 values for Pepsin A (Sus scrofa, UniProt P00791).

smiles-representation | IC50
CC[C@H](C)[C@H](NC(=O)[C@@H](C[C@H](O)[C@H](CC(C)C)NC(=O)CCNC(=O)[C@H](Cc1ccccc1)NC(=O)OC(C)(C)C)C(C)C)C(=O)NCc1cnc(C)nc1N | 0.83 µM
CC[C@H](C)[C@H](NC(=O)C[C@H](O)[C@H](CC1CCCCC1)NC(=O)CSCC(=O)[C@H](Cc1ccccc1)NC(=O)OC(C)(C)C)C(=O)NCc1cnc(C)nc1N | 53 µM
CC[C@H](C)[C@H](NC(=O)C[C@H](O)[C@H](CC1CCCCC1)NC(=O)CCNC(=O)[C@H](Cc1ccccc1)NC(=O)N1CCOCC1)C(=O)NCc1cnc(C)nc1N | > 10 µM

---

target: Renin (Homo sapiens); assay: In vitro for inhibitory activity against human renin
Sequence (P00797 whole entry): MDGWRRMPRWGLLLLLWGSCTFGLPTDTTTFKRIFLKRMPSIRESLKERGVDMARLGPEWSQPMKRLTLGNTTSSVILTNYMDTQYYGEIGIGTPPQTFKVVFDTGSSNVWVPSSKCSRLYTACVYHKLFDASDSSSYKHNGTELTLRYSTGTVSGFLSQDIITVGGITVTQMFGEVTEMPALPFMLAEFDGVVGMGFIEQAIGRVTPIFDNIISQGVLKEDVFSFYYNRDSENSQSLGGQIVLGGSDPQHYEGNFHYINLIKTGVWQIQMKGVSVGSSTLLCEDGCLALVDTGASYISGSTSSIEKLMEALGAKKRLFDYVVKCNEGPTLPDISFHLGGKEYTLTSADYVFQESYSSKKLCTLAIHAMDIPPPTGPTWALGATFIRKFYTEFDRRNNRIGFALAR
Classify on IC50 using band 1: < 2 nM; band 2: ≥ 2 nM and < 6 nM; band 3: ≥ 6 nM

smiles-representation | category-label
CC[C@H](C)[C@H](NC(=O)C[C@H](O)[C@H](CC1CCCCC1)NC(=O)CCNC(=O)[C@@H](Cc1ccccc1)NC(=O)CC(C)(C)N)C(=O)NCc1cnc(C)nc1N | band 1
CC[C@H](C)[C@H](NC(=O)C[C@H](O)[C@H](CC1CCCCC1)NC(=O)CSC[C@H](O)[C@H](Cc1ccccc1)NC(=O)OC(C)(C)C)C(=O)NCc1cnc(C)nc1N | band 3
CC[C@H](C)[C@H](NC(=O)C[C@H](O)[C@H](CC1CCCCC1)NC(=O)CC[C@H](O)[C@H](Cc1ccccc1)NC(=O)OC(C)(C)C)C(=O)NCc1cnc(C)nc1N | band 2
CC[C@H](C)[C@H](NC(=O)C[C@H](O)[C@@H](CC1CCCCC1)NC(=O)CNC(=O)[C@@H](Cc1ccccc1)NC(=O)OC(C)(C)C)C(=O)NCc1cccnc1 | band 2
CC[C@H](C)[C@H](NC(=O)C[C@H](O)[C@H](CC1CCCCC1)NC(=O)CCNC(=O)[C@H](Cc1ccccc1)NC(=O)N1CCC(N(C)C)CC1)C(=O)NCc1cnc(C)nc1N | band 1
CC[C@H](C)[C@H](NC(=O)[C@@H](C[C@H](O)[C@H](CC(C)C)NC(=O)CCNC(=O)[C@H](Cc1ccccc1)NC(=O)OC(C)(C)C)C(C)C)C(=O)NCc1cnc(C)nc1N | band 2
CC[C@H](C)[C@H](NC(=O)C[C@H](O)[C@@H](CC1CCCCC1)NC(=O)CCCNC(=O)[C@@H](Cc1ccccc1)NC(=O)OC(C)(C)C)C(=O)NCc1cnc(C)nc1N | band 3
CC[C@H](C)[C@H](NC(=O)C[C@H](O)[C@H](CC1CCCCC1)NC(=O)CCNC(=O)[C@H](Cc1ccccc1)NC(=O)CCC[N+](C)(C)C)C(=O)NCc1cnc(C)nc1N.[Cl-] | band 3
CC[C@H](C)[C@H](NC(=O)C[C@H](O)[C@H](CC1CCCCC1)NC(=O)CSC[C@@H](O)[C@H](Cc1ccccc1)NC(=O)OC(C)(C)C)C(=O)NCc1cnc(C)nc1N | band 2
CC[C@H](C)[C@H](NC(=O)C[C@H](O)[C@H](CC1CCCCC1)NC(=O)CCNC(=O)[C@@H](Cc1ccccc1)NC(=O)N1CCC(C(=O)O)CC1)C(=O)NCc1cnc(C)nc1N | band 1
CC[C@H](C)[C@H](NC(=O)C[C@H](O)[C@H](CC1CCCCC1)NC(=O)CC[C@@H](O)[C@H](Cc1ccccc1)NC(=O)OC(C)(C)C)C(=O)NCc1cnc(C)nc1N | band 1

---

Values of IC50 reported for Pepsin A (Sus scrofa, UniProt P00791) appear below.
observation-type: IC50 (µM)

molecule | operator-symbol | observed
CC[C@H](C)[C@H](NC(=O)C[C@H](O)[C@@H](CC1CCCCC1)NC(=O)CCNC(=O)[C@@H](Cc1ccccc1)NC(=O)OC(C)(C)C)C(=O)NCc1cnc(C)nc1N | = | 18.5
CC[C@H](C)[C@H](NC(=O)C[C@H](O)[C@H](CC1CCCCC1)NC(=O)CCNC(=O)[C@@H](N)Cc1ccccc1)C(=O)NCc1cnc(C)nc1N | > | 10
CC[C@H](C)[C@H](NC(=O)C[C@H](O)[C@H](CC1CCCCC1)NC(=O)CCNC(=O)[C@H](Cc1ccccc1)NC(=O)N1CCC(NC(=O)OC(C)(C)C)CC1)C(=O)NCc1cnc(C)nc1N | > | 10
CC[C@H](C)[C@H](NC(=O)C[C@H](O)[C@H](CC1CCCCC1)NC(=O)C[S+]([O-])CC(=O)[C@H](Cc1ccccc1)NC(=O)OC(C)(C)C)C(=O)NCc1cnc(C)nc1N (stereo not given in full) | > | 10
CCOC(=O)C1CCN(C(=O)N[C@@H](Cc2ccccc2)C(=O)NCCC(=O)N[C@@H](CC2CCCCC2)[C@@H](O)CC(=O)N[C@H](C(=O)NCc2cnc(C)nc2N)[C@@H](C)CC)CC1 | = | 4.2

---

Target: Cathepsin D (Bos taurus)
Sequence (P80209 whole entry): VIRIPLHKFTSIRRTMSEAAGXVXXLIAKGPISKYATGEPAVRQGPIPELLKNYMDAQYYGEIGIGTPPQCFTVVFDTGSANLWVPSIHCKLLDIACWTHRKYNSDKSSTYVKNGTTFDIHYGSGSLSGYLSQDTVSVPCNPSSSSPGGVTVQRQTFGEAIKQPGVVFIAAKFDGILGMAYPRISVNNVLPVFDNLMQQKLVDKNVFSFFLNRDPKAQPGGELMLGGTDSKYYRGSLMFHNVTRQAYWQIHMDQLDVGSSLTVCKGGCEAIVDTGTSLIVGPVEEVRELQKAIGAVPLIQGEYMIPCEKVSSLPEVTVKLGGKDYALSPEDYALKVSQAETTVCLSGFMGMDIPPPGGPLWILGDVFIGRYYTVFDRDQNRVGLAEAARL

compound | IC50
CC[C@H](C)[C@H](NC(=O)C[C@H](O)[C@H](CC1CCCCC1)NC(=O)C[S+]([O-])CC(=O)[C@H](Cc1ccccc1)NC(=O)OC(C)(C)C)C(=O)NCc1cnc(C)nc1N (some centres undefined) | > 10 µM
CC[C@H](C)[C@H](NC(=O)C[C@H](O)[C@H](CC1CCCCC1)NC(=O)CC[C@@H](O)[C@H](Cc1ccccc1)NC(=O)OC(C)(C)C)C(=O)NCc1cnc(C)nc1N | > 10 µM
CC[C@H](C)[C@H](NC(=O)C[C@H](O)[C@H](CC1CCCCC1)NC(=O)CCNC(=O)[C@H](Cc1ccccc1)NC(=O)N1CCOCC1)C(=O)NCc1cnc(C)nc1N | > 10 µM
CC[C@H](C)[C@H](NC(=O)C[C@H](O)[C@H](CC1CCCCC1)NC(=O)CSC[C@H](O)[C@H](Cc1ccccc1)NC(=O)OC(C)(C)C)C(=O)NCc1cnc(C)nc1N | > 100 µM

---

molecular target: Renin (Homo sapiens); test: In vitro for inhibitory activity against human renin
pIC50: −log10 of the molar value.
Readings of pIC50 for the listed compounds

smiles-representation | assayed-system | pIC50
CC[C@H](C)[C@H](NC(=O)[C@@H](C[C@H](O)[C@H](CC(C)C)NC(=O)CNC(=O)[C@H](Cc1ccccc1)NC(=O)OC(C)(C)C)C(C)C)C(=O)NCc1cnc(C)nc1N | Renin (Homo sapiens) | 8.27
CC[C@H](C)[C@H](NC(=O)C[C@H](O)[C@H](Cc1ccccc1)NC(=O)[C@H](Cc1c[nH]cn1)NC(=O)[C@H](Cc1ccccc1)NC(=O)OC(C)(C)C)C(=O)NCc1cccnc1 | Renin (Homo sapiens) | 8.54
CC[C@H](C)[C@H](NC(=O)C[C@H](O)[C@H](CC1CCCCC1)NC(=O)CCNC(=O)[C@H](Cc1ccccc1)NC(=O)N1CCOCC1)C(=O)NCc1cnc(C)nc1N | Renin (Homo sapiens) | 9.55
CC[C@H](C)[C@H](NC(=O)C[C@H](O)[C@H](CC1CCCCC1)NC(=O)CS(=O)(=O)CC(=O)[C@H](Cc1ccccc1)NC(=O)OC(C)(C)C)C(=O)NCc1cnc(C)nc1N | Renin (Homo sapiens) | 6.62
